# system: UniProt P30291
# method-notes: Wee1 protein degradation assay (HiBiT assay)
# Type: cell-based
# experimental-parameters: engineered HT-1080 cells, 20 hours
measurement-name: DC50

INSERT INTO measurements (molecule, system, obs_value) VALUES
  ('CN1CN(c2c(Cl)cccc2Cl)C(=O)c2cnc(Nc3ccc4c(c3)CN(CC3CN(c5ccc6c(c5)C(=O)N(C5CCC(=O)NC5=O)C6=O)C3)CC4)nc21 (centres unmarked)', 'UniProt P30291', '> 1000 nM'),
  ('C=CCn1c(=O)c2cnc(Nc3ccc(N4CCC(N5CCC(c6ccc(NC7CCC(=O)NC7=O)cc6)CC5)CC4)cc3)nc2n1-c1cccc(C(C)(C)O)n1 (centres unmarked)', 'UniProt P30291', '< 100 nM'),
  ('C=CCn1c(=O)c2cnc(Nc3ccc(N4CCN(CC5CCN(c6ccc7c(c6)CN(C6CCC(=O)NC6=O)C7=O)CC5)CC4)cc3)nc2n1-c1cccc(C(C)(C)O)n1 (centres unmarked)', 'UniProt P30291', '< 100 nM'),
  ('C=CCn1c(=O)c2cnc(Nc3ccc(N4CCC(CN5CCC(c6ccc(NC7CCC(=O)NC7=O)cc6C(F)(F)F)CC5)CC4)cc3)nc2n1-c1cccc(C(C)(C)O)n1 (centres unmarked)', 'UniProt P30291', '< 100 nM');

Provide DC50 value for the following molecule: C=CCn1c(=O)c2cnc(Nc3ccc4c(c3)CN(CCCNc3ccc5c(c3)C(=O)N(C3CCC(=O)NC3=O)C5=O)CC4)nc2n1-c1cccc(C(C)(C)O)n1 (centres unmarked) > 1000 nM

---

Please go through the items and note down their Dmax.
# system: HiBiT tagged Wee1 (Homo sapiens)
# Sequence (P30291 whole entry): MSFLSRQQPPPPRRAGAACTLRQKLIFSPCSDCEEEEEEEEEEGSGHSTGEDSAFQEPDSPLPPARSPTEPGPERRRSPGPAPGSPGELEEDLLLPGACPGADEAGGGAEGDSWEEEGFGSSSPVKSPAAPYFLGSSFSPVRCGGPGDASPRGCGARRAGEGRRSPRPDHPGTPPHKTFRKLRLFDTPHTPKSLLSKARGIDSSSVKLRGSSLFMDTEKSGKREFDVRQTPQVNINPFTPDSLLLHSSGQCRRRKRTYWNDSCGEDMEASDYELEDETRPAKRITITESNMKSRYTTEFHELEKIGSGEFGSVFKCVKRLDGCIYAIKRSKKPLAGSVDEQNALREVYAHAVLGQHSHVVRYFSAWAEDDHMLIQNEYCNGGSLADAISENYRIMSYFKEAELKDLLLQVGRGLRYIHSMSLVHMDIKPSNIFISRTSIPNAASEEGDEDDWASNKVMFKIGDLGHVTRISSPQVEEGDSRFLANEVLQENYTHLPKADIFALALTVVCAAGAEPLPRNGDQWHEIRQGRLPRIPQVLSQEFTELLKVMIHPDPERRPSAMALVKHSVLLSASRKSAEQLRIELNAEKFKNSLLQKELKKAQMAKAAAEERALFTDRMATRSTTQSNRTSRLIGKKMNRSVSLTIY
# method-notes: Wee1 protein degradation assay (HiBiT assay)
# Format: cell-based
# experimental-parameters: engineered HT-1080 cells, 20 hours; maximum percentage of Wee1 degradation; read-out: HiBiT Wee1: Dmax

INSERT INTO measurements (molecule, obs_value) VALUES
  ('C=CCn1c(=O)c2cnc(Nc3ccc(N4CCC(N5CCN(c6cccc7c6n(C)c(=O)n7C6CCC(=O)NC6=O)CC5)CC4)cc3)nc2n1-c1cccc(C(C)(C)O)n1 (centres unmarked) [Compound 68]', '50 to 75%'),
  ('C=CCn1c(=O)c2cnc(Nc3ccc(N4CCN(CCCc5ccc6c(c5)n(C)c(=O)n6C5CCC(=O)NC5=O)CC4)cc3)nc2n1-c1cccc(C(C)(C)O)n1 (centres unmarked) [Compound 46]', '50 to 75%'),
  ('C=CCn1c(=O)c2cnc(Nc3ccc(C4CCN(CC5CCN(c6ccc7c(C8CCC(=O)NC8=O)nn(C)c7c6)CC5)CC4)cc3)nc2n1-c1cccc(C(C)(C)O)n1 (centres unmarked) [Compound 111]', '50 to 75%'),
  ('C=CCn1c(=O)c2cnc(Nc3ccc(N4CCN(C5CC6(C5)CN(c5ncc(NC7CCC(=O)NC7=O)cc5F)C6)CC4)cc3)nc2n1-c1ccc2c(n1)[C@@](O)(CC)CC2 (some centres unmarked) [Compound 185]', '> 75%');

Please turn your attention to the following entry.
Give reported Dmax for C=CCn1c(=O)c2cnc(Nc3ccc(N4CCN(CC5CCN(c6ccc(NC7CCC(=O)NC7=O)cc6F)CC5)CC4)cc3)nc2n1-c1ccc2c(n1)[C@](C)(O)CCC2 (single isomer, unassigned) [Compound 190] (HiBiT tagged Wee1 (Homo sapiens)) > 75%
